# assay system: Cytochrome P450 2C19 (Homo sapiens)
# method notes: Cytochrome panel assay with activity outcomes
# applied conditions: recombinant CYP, pro-luciferin dealkylation, luminescence, p450-cyp2c19; series mostly up to 57.1 µM
In all, about 16,000 compounds went through this assay and about 5,800 (36%) were called active. Another 23% or so got no clear call; they are omitted. Calls come from the whole dose curve; as a rule, active = well fitted curve in the direction sought with a large enough effect; inconclusive = small, poorly fitted or top-dose-only effect, or effect the other way; inactive = no such curve, though single readings can be large or run the other way. The list shows a part of the results.
Labels: active, inactive

compound	class assignment
NCC1(CC(=O)O)CCCCC1	inactive
CN(C)[C@@H]1C(=O)C(C(N)=O)=C(O)[C@]2(O)C(=O)C3=C(O)c4c(O)cccc4[C@@](C)(O)[C@H]3[C@H](O)[C@@H]12	inactive
COc1ccc(Cl)cc1NC(=O)NCCCl	active
c1ccc2nc(N3CCNCC3)ccc2c1	inactive
O=C(O)c1cc[c]([Hg][S]c2ncnc3nc[nH]c23)cc1	active
Cc1nc2ccccc2c(=O)n1-n1cnnc1	inactive
CC(=O)Nc1ccccc1C(=O)OCc1ccc(C(=O)c2ccccc2)cc1	active
CSC([N-]/N=C/c1cccc(C)n1)=[S]=[Cu].CS[C@H]([S-])[N-]/N=C/c1cccc(C)n1	active
Oc1ccc2c3c1O[C@H]1c4c(c5ccccc5n4Cc4ccccc4)C[C@]4(O)[C@H](C2)N(CC2CC2)CC[C@@]314	inactive
CNC[C@H](O)c1ccc(O)cc1	inactive
C[C@H]1CC[C@]2(OC1)O[C@@H]1C[C@@H]3[C@@H]4CC[C@H]5C[C@@H](O)CC[C@]5(C)[C@@H]4CC(=O)[C@@]3(C)[C@H]1[C@@H]2C	inactive
O=C(c1ccc(-c2nnc(Nc3ccccc3)c3ccccc23)cc1)N1C[C@H]2C[C@H](C1)c1cccc(=O)n1C2	active
CC[C@H](C(=O)[C@H](C)[C@H](O)[C@H](C)CCc1ccc(C)c(O)c1C(=O)O)[C@H]1O[C@](CC)([C@@H]2CC[C@@](O)(CC)[C@H](C)O2)C[C@H]1C	inactive
O=C1CN=C(c2cccs2)c2c(sc3c2CCCC3)N1	active
CCCCn1c(O)c(C=NCCN2CCCCC2)c(=O)[nH]c1=O	inactive
C[C@@H]1O[C@H]1P(=O)(O)O	inactive
NC(=O)COc1c(F)cc(SCCNS(=O)(=O)c2ccccc2)cc1F	inactive
CN1[C@H]2CC(=O)C[C@@H]1[C@@H](O)C2	inactive
N[C@@H](CCCCP(=O)(O)O)C(=O)O	inactive
CCCN(CCC)C(=O)Cc1c(-c2ccc(Cl)cc2)nc2c(Cl)cc(Cl)cn12	inactive
C=CCn1c(O)c(C(C)=NCCCN2CCOCC2)c(=O)[nH]c1=O	inactive
CCCCn1c(O)c(C(CC)=NCc2ccc(F)cc2)c(=O)[nH]c1=O	active
CC(N)Cc1ccccc1Sc1ccc(O)cc1 (centres undefined)	active
C[C@H](N)Cc1c[nH]c2ccc(O)cc12	inactive
Cc1c2ccncc2c(C)c2c1[nH]c1ccccc12	active
O=C(O)c1ccccc1-c1c2cc(Br)c(=O)cc-2oc2[c]([Hg])c(O)c(Br)cc12	active
CN(C)Cc1c[nH]c2ccccc12	inactive
CNC(C)Cc1ccccc1Sc1ccc(O)cc1 (centres undefined)	active
S=C(S)N1CCCC1	active
O=C(Nc1ccc(Cl)cc1C(=O)c1ccccc1)c1ccco1	active
CN(C)CCOC(=O)COc1ccc(Cl)cc1	inactive
Cc1nccc2c1[nH]c1ccccc12	inactive
CCCCCC[C@H]1C(=O)O[C@H](C)[C@H](NC(=O)c2cccc(NC=O)c2O)C(=O)O[C@@H](C)[C@H]1OC(=O)CC(C)C	inactive
CN1CCc2cc(O)cc3c2[C@H]1Cc1ccc(O)c(O)c1-3	inactive
N#C/C(=C\c1ccc(O)c(O)c1)C(=O)NCCCNC(=O)/C(C#N)=C/c1ccc(O)c(O)c1	inactive
C[C@@H]1[C@@H]2Cc3ccc(O)cc3[C@@]1(C)CCN2CC1CC1	inactive
CN(N=O)C(=O)N[C@H]1C(O)OC(CO)[C@@H](O)[C@H]1O (some centres undefined)	active
O=C(Nc1ccc(Cl)cc1C(=O)c1ccccc1Cl)c1ccco1	active
CCOC(=O)c1[nH]c(C)c(C(=O)N2CCC3(CC2)OCCO3)c1C	active

###

# assay system: Cytochrome P450 2C19 (Homo sapiens) (UniProt P33261)
# Sequence (P33261 whole entry, looked up): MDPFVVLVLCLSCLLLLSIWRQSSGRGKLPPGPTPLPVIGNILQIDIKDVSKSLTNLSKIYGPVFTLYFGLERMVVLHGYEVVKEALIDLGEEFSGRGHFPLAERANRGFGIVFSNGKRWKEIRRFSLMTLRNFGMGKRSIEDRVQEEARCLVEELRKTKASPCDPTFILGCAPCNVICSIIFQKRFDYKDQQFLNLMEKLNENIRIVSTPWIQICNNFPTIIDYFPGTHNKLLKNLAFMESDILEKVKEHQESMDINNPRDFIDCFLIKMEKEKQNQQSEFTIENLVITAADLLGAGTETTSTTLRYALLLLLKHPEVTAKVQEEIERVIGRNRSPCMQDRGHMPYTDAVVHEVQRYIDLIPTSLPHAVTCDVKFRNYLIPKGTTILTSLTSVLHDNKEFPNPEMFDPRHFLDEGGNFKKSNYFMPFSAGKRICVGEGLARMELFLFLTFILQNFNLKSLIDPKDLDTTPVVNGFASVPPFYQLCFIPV
# method notes: Cytochrome panel assay with activity outcomes
# applied conditions: recombinant CYP, pro-luciferin dealkylation, luminescence, p450-cyp2c19; series mostly up to 57.1 µM
The whole screen tested about 16,000 compounds, of which about 5,800 (36%) were called active. Inconclusive results (about 23%) are left out. Calls come from the whole dose curve; as a rule, active = well fitted curve in the direction sought with a large enough effect; inconclusive = small, poorly fitted or top-dose-only effect, or effect the other way; inactive = no such curve, though single readings can be large or run the other way. This is one part of the list.
Outcome codes: active, inactive

compound	assay system	class assignment
COc1c2c(cc3c1OCO3)CCN(C)C2	Cytochrome P450 2C19 (Homo sapiens) (UniProt P33261)	inactive
COc1ccc2c(c1)CCC1C2CC[C@]2(C)[C@H](NCCCCCCN3C(=O)C=CC3=O)CC[C@@H]12 (stereo partly specified)	Cytochrome P450 2C19 (Homo sapiens) (UniProt P33261)	inactive
COc1ccc2c(c1OC)CN1CCc3cc4c(cc3[C@H]1C2)OCO4	Cytochrome P450 2C19 (Homo sapiens) (UniProt P33261)	active
CN1CC[C@@]2(CCCN(C(=O)c3ccncc3)C2)C1	Cytochrome P450 2C19 (Homo sapiens) (UniProt P33261)	inactive
CC(=O)N1CC[N+](C)(C)CC1	Cytochrome P450 2C19 (Homo sapiens) (UniProt P33261)	inactive
COc1ccc2c(c1O)-c1c(OC)c(OC)cc3c1[C@H](C2)N(C)CC3	Cytochrome P450 2C19 (Homo sapiens) (UniProt P33261)	inactive
Nc1nc2ccc(Cl)cc2c2nc(-c3ccco3)nn12	Cytochrome P450 2C19 (Homo sapiens) (UniProt P33261)	inactive
C[N+]1(C)CCc2cc3c(cc2[C@@H]1[C@@H]1OC(=O)c2c1ccc1c2OCO1)OCO3	Cytochrome P450 2C19 (Homo sapiens) (UniProt P33261)	inactive
COc1ccc(OC)c([C@H](O)[C@H](C)N)c1	Cytochrome P450 2C19 (Homo sapiens) (UniProt P33261)	inactive
CO[C@H]1C=C2CCN(C)[C@@H]2[C@@H]2c3cc4c(cc3C(=O)O[C@H]21)OCO4	Cytochrome P450 2C19 (Homo sapiens) (UniProt P33261)	inactive
C[C@@]12CC[C@H]3[C@@H](CC=C4C[C@H](OS(=O)(=O)O)CC[C@]43C)[C@H]1CCC2=O	Cytochrome P450 2C19 (Homo sapiens) (UniProt P33261)	inactive

###

Each item that follows carries a reported activity, negative = inhibition.
# assay system: Cytochrome P450 2C19 (Homo sapiens)
# method notes: Cytochrome panel assay with activity outcomes; for activity, negative = inhibition: % is set by controls: 0 for no effect and ±100 for the full control effect
# applied conditions: recombinant CYP, pro-luciferin dealkylation, luminescence, p450-cyp2c19; series mostly up to 57.1 µM
In all, about 16,000 compounds went through this assay and about 5,800 (36%) were called active. Inconclusive results (about 23%) are left out. This is one part of the list.
test readout: activity, negative = inhibition

1. N=C(N)c1ccc(-c2ccc(-c3ccc(C(=N)N)cc3)o2)cc1 37% [at 11.4 µM] (inactive)
2. C[C@]12CC[C@H]3c4ccc(O)cc4CC[C@@H]3[C@H]1CC[C@@H]2OC(=O)CCc1ccccc1 -66% [at 11.4 µM] (inactive)
3. CCN=C=NCCCN(C)C 27.1% [at 11.4 µM] (inactive)
4. COC(=O)[C@H]1[C@H](c2ccccc2)C(=O)[C@@]2(O)c3ccccc3O[C@@]12c1ccccc1 -15.7% [at 11.4 µM] (inactive)
5. O=C(O)C[C@H]1NCc2cc3ccccc3nc21 22.2% [at 11.4 µM] (inactive)
6. CC[C@H]1CN2CCc3cc(OC)c(OC)cc3[C@H]2C[C@@H]1C[C@H]1NCCc2c1[nH]c1ccc(O)cc21 34.7% [at 11.4 µM] (inactive)
7. C[C@@]12CC[C@@H]3[C@H](CCC4=CC(=O)CC[C@]43C)[C@@H]1CC[C@@H]2C(=O)Cn1cnc2c(=S)nc[nH]c21 -3.21% [at 11.4 µM] (inactive)
8. CC(C)c1ccc(C(O)(C(=O)O)c2ccc(C(C)C)cc2)cc1 21.5% [at 11.4 µM] (inactive)
9. CN1CCN(c2ccc([N+](=O)[O-])c3[nH]o[n+](=O)c23)CC1 -37.2% [at 11.4 µM] (inactive)
10. CCN(CC)CCn1ncc2c(N)ncnc21 -2.72% [at 11.4 µM] (inactive)

###

# assay system: Cytochrome P450 2C19 (Homo sapiens)
# method notes: Cytochrome panel assay with activity outcomes
# applied conditions: recombinant CYP, pro-luciferin dealkylation, luminescence, p450-cyp2c19; series mostly up to 57.1 µM
Among all 16,000 compounds or so, about 5,800 (36%) were called active. Another 23% or so got no clear call; they are omitted. Calls come from the whole dose curve; as a rule, active = well fitted curve in the direction sought with a large enough effect; inconclusive = small, poorly fitted or top-dose-only effect, or effect the other way; inactive = no such curve, though single readings can be large or run the other way. The list shows a part of the results.
Classes used: active, inactive

compound	class assignment
COc1ccc2[nH]c3c(c2c1)CCN=C3C	inactive
N[C@H](CCCP(=O)(O)O)C(=O)O	inactive
CN1[C@@H]2CC[C@H]1CC(NC(=O)c1nn(C)c3ccccc13)C2 (stereo partly specified)	inactive
CCN(CC)C1=NC(=[N+](CC)CC)c2ccccc21	inactive
C/C(=C\c1ccc(N(C)C)cc1)[N+](=O)[O-]	active
Cc1ccc(S(=O)(=O)N[C@@H](CCCCN)C(=O)CCl)cc1	inactive
NC1=Nc2ccccc2Oc2ccccc21	inactive
C=CCN1CCc2cccc3c2[C@@H]1Cc1ccc(O)c(O)c1-3	inactive
CNC(=O)OCC[N+](C)(C)C	inactive
CCCCCCCCCCCCCC(=O)O[C@H]1[C@@H](C)[C@@]2(O)[C@@H](C=C(CO)C[C@]3(O)C(=O)C(C)=C[C@@H]23)C2C(C)(C)[C@]21OC(C)=O (stereo partly specified)	inactive
N#Cc1ccc(CN2CCC3(CC2)CCN(C(=O)Oc2ccccc2)CC3)cc1	inactive
